# TARGET OF ASSAY: RNA-directed RNA polymerase (Hepacivirus hominis, UniProt O39930)
# Sequence (O39930 whole entry): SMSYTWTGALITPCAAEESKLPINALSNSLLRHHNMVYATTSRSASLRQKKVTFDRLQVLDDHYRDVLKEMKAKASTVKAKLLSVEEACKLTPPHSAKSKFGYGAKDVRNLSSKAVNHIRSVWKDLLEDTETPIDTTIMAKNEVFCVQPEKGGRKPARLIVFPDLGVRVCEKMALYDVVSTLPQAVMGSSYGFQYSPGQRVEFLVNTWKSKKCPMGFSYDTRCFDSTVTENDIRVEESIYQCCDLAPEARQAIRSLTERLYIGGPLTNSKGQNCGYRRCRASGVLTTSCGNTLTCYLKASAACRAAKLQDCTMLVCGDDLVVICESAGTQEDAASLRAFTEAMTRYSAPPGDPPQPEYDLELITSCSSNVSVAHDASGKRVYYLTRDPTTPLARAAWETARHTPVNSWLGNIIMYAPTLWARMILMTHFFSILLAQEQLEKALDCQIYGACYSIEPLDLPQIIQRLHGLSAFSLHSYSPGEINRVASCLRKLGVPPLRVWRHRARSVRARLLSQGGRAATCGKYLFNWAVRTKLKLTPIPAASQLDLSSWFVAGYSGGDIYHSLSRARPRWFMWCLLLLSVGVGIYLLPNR
# TEST NAME: Effective concentration to inhibit the activity of RNA dependent RNA polymerase nonstructural protein 5B in hepatitis C virus; n=1
REPORTED METRIC: pEC50
When answering, recall that pEC50 equals minus log10 of the concentration in mol/L, and write that number alone.

Lab note: compound Cc1ccc(-c2c(C3CCCCC3)c3ccc(C(=O)O)cc3n2CC(=O)N2CCOCC2)cc1 tested on RNA-directed RNA polymerase (Hepacivirus hominis, UniProt O39930); recorded pEC50 was 6.52

###

Hi there, I'd appreciate the recorded IC50 for every entry that follows.
# TARGET OF ASSAY: RNA-directed RNA polymerase (Hepacivirus hominis, UniProt O39930)
# TEST NAME: Inhibitory activity against RNA dependent RNA polymerase nonstructural protein 5B in hepatitis C virus; n=1
Number in nM, nothing else.

Entry under test: CN(C)C(=O)Cn1c(-c2cccc(F)c2)c(C2CCCCC2)c2ccc(C(=O)O)cc21 . Its IC50 was 18

Entry under test: CN(C)C(=O)Cn1c(-c2ccccc2Cl)c(C2CCCCC2)c2ccc(C(=O)O)cc21 . Its IC50 was 372

Entry under test: Cc1ccc(-c2c(C3CCCCC3)c3ccc(C(=O)O)cc3n2CC(=O)N(C)C)cc1 . Its IC50 was 17

Entry under test: CN(C)C(=O)Cn1c(-c2cccc(Cl)c2)c(C2CCCCC2)c2ccc(C(=O)O)cc21 . Its IC50 was 40

Entry under test: Cn1c(-c2ccccc2)c(C2CCCCC2)c2ccc(C(=O)O)cc21 . Its IC50 was 28

Entry under test: O=C(O)c1ccc2c(C3CCCCC3)c(-c3ccccc3)n(Cc3ccccc3)c2c1 . Its IC50 was 37

Entry under test: Cc1ccc(-c2c(C3CCCCC3)c3ccc(C(=O)O)cc3n2CC(=O)N2CCOCC2)cc1 . Its IC50 was 11

Entry under test: CN(C)C(=O)Cn1c(-c2ccc(OCc3ccccc3)cc2)c(C2CCCCC2)c2ccc(C(=O)O)cc21 . Its IC50 was 6

Entry under test: CN(C)C(=O)Cn1c(-c2ccccc2)c(C2CCCCC2)c2ccc(C(=O)O)cc21 . Its IC50 was 59

Entry under test: O=C(O)c1ccc2c(C3CCCCC3)c(-c3ccccc3)n(CCN3CCOCC3)c2c1 . Its IC50 was 111

Entry under test: COc1ccc(-c2c(C3CCCCC3)c3ccc(C(=O)O)cc3n2CC(=O)N(C)C)cc1 . Its IC50 was 18

Entry under test: CS(=O)(=O)NC(=O)Cn1c(-c2ccccc2)c(C2CCCCC2)c2ccc(C(=O)O)cc21 . Its IC50 was 45

Entry under test: O=C(O)c1ccc2c(C3CCCCC3)c(-c3ccccc3)n(S(=O)(=O)c3ccccc3)c2c1 . Its IC50 was 485

Entry under test: O=C(O)c1ccc2c(C3CCCCC3)c(-c3ccccc3)n(CC(=O)N3CCOCC3)c2c1 . Its IC50 was 26

Entry under test: O=C(O)c1ccc2c(C3CCCCC3)c(-c3ccccc3)[nH]c2c1 . Its IC50 was 48

###

# TARGET OF ASSAY: RNA-directed RNA polymerase (Hepacivirus hominis, UniProt O39930)
# TEST NAME: Inhibitory concentration against RNA dependent RNA polymerase nonstructural protein 5B of hepatitis C virus
REPORTED METRIC: IC50 (nM)
Number in nM, nothing else.

Entry under test: O=C(O)c1ccc2c(c1)nc(-c1ccc(O)cc1F)n2C1CCCCC1 . Its IC50 was 1.4

Entry under test: O=C(O)c1ccc2c(c1)cc(-c1ccc(O)cc1)n2C1CCCCC1 . Its IC50 was 340

Entry under test: O=C(O)c1ccc2c(C3CCCCC3)c(-c3ccc(O)cc3)[nH]c2c1 . Its IC50 was 4.8

Entry under test: O=C(O)c1ccc2c(c1)nc(-c1ccc(O)cc1)n2C1CCCCC1 . Its IC50 was 3

Data provenance: ChEMBL document CHEMBL1142688
